- assay.system: Estrogen receptor (Rattus norvegicus)
- Sequence (P06211 whole entry): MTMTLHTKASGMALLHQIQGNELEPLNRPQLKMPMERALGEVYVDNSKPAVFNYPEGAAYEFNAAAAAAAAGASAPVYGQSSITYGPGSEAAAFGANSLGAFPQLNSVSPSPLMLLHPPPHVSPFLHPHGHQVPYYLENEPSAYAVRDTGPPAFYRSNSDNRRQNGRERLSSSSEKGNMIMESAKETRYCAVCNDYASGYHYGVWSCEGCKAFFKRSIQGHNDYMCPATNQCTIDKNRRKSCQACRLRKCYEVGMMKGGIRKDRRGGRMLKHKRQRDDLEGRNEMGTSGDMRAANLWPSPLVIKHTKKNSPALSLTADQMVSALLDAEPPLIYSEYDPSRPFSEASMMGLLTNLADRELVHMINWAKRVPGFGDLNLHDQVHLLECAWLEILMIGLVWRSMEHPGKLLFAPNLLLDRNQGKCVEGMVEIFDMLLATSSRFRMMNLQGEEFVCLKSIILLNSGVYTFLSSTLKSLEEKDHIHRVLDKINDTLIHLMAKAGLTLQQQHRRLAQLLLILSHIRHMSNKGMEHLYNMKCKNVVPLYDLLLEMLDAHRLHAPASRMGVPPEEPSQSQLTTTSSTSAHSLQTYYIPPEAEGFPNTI
pIC50: −log10 of the molar value.

| smiles.repr | assay.system | pIC50 |
| --- | --- | --- |
| Oc1ccc(-c2nc3cc(O)cc(Br)c3o2)cc1 | Estrogen receptor (Rattus norvegicus) | 6.88 |
| Oc1cc(Br)c2oc(-c3ccc(O)c(F)c3)nc2c1 | Estrogen receptor (Rattus norvegicus) | 6.77 |
| N#Cc1cc(O)cc2nc(-c3ccc(O)cc3)oc12 | Estrogen receptor (Rattus norvegicus) | 6.44 |
| Oc1ccc(-c2nc3ccc(O)cc3o2)cc1 | Estrogen receptor (Rattus norvegicus) | 6.09 |
| Oc1ccc(-c2noc3cc(O)ccc23)cc1 | Estrogen receptor (Rattus norvegicus) | 6.15 |
| C=Cc1cc(O)cc2nc(-c3ccc(O)c(F)c3)oc12 | Estrogen receptor (Rattus norvegicus) | 6.21 |
